- Test system: Candida albicans
- method: Test 1: Action against Candida albicans (in vitro), suppression of mycelial type growth
- Format: cell-based, Candida albicans ATCC 44859
- reported-conditions: ATCC44859, C. albicans ATCC 44859, 10% fetal-bovine-serum added MEM, 37° C., 24 hours, CO2 incubator, read-out: Terminal point (minimum medicament concentration permitting the apparent suppression of mycerial type growth)
recorded-metric: minimal effective concentration (µg/mL)

[
  {
    "compound": "CCS(=O)(=O)C(F)(F)C(O)(Cn1cncn1)c1ccc(F)cc1 (single isomer, unassigned; (-))",
    "assayed-system": "Candida albicans",
    "endpoint-unit": "µg/mL",
    "numeric-result": 0.0156
  },
  {
    "compound": "CCS(=O)(=O)C(F)(F)C(O)(Cn1cncn1)c1ccc(F)cc1F (single isomer, unassigned; (-)) [Example 21(2)]",
    "assayed-system": "Candida albicans",
    "endpoint-unit": "µg/mL",
    "numeric-result": 0.0156
  },
  {
    "compound": "CCS(=O)(=O)C(F)(F)C(O)(Cn1cncn1)c1ccc(F)cc1F (racemic) [Example 15]",
    "assayed-system": "Candida albicans",
    "endpoint-unit": "µg/mL",
    "numeric-result": 0.0313
  },
  {
    "compound": "CCSC(F)(F)C(O)(Cn1cncn1)c1ccc(C(F)(F)F)cc1 (centres unmarked)",
    "assayed-system": "Candida albicans",
    "endpoint-unit": "µg/mL",
    "numeric-result": 0.0078
  },
  {
    "compound": "CCSC(F)(F)C(O)(Cn1cncn1)c1ccc(F)cc1F (centres unmarked)",
    "assayed-system": "Candida albicans",
    "endpoint-unit": "µg/mL",
    "numeric-result": 0.0078
  }
]
